Item-by-item account of inhibition
method_description: inhibitors of HIV fusion peptide binding, primary screen, biochemical, uHTS, fluorescence dequenching (AID 1986)
conditions_used: cell-free peptide binding, 30 min, at 20 µM, stronger effect = higher value
Screen size: about 290,000 compounds; about 890 (0.31%) were called active. What follows is part of a selection rich in actives, with near analogues and random picks from the rest.
Express it in %; write the number only.

Reference set (4 entries):
{"compound": "CCC(=O)Nc1cc(Cl)ccc1C(=O)O", "output_unit": "%", "inhibition": -0.2}
{"compound": "N#CC(c1ccccc1)C1CCN(Cc2ccccc2)CC1 (stereo not given)", "output_unit": "%", "inhibition": 0.8}
{"compound": "O=C(O)c1ccc(Cl)cc1Nc1nc2cc(Cl)ccc2o1", "output_unit": "%", "inhibition": 67.6}
{"compound": "Cc1c(C(=O)N2CCCC2)sc(NC(=O)c2cccs2)c1C#N", "output_unit": "%", "inhibition": 3.6}

Please turn your attention to the following entry.
I have this compound here, CCS(=O)(=O)c1ccc2oc(Nc3cc(Cl)ccc3OC)nc2c1 , and I need its recorded inhibition.
-1

* * *

method_description: inhibitors of HIV fusion peptide binding, primary screen, biochemical, uHTS, fluorescence dequenching (AID 1986)
conditions_used: cell-free peptide binding, 30 min, at 20 µM
About 890 (0.31%) of roughly 290,000 compounds were called active. Rule as the data show it: active = inhibition mostly above about 52% (no sharp cut-off); inactive = mostly below about 76%. This is one part of a sample in which actives are shown more often than they occur.
Entry note: the call must match one of 1 (active), -1 (inactive)

{"compound_smiles": "CCN(CC)c1ccc(/C=C/c2nc3ccccc3s2)cc1", "label": 1}
{"compound_smiles": "COc1ccc(CN(CC(=O)NC2CCCC2)C(=O)CN2C(=O)COc3ccccc32)cc1", "label": -1}
{"compound_smiles": "COc1ccc(NC(=O)CSc2nncc3ccccc23)cc1", "label": -1}
{"compound_smiles": "CCOC(=O)c1c(NC(=O)N/N=C/c2ccc(O)c(OC)c2)sc(C(C)=O)c1C", "label": -1}

# input for lookup
Please state the recorded outcome for this molecule: CCN(CC)c1ccc(/C=N/n2c(C)nc3ccccc3c2=O)cc1
-1

* * *

method_description: inhibitors of HIV fusion peptide binding, primary screen, biochemical, uHTS, fluorescence dequenching (AID 1986)
conditions_used: cell-free peptide binding, 30 min, at 20 µM
In all, about 290,000 compounds went through this assay and about 890 (0.31%) were called active. No stated cut-off is given here; in the data, active means inhibition mostly above about 52% (no sharp cut-off); inactive means mostly below about 76%. The sample as a whole holds a higher share of actives than the screen did.
Classes to choose from: active, inactive

Take a look at these entries with their results.
{"compound": "S=c1[nH]nc(-c2ccco2)n1/N=C/C=C/c1ccco1", "label": "active"}
{"compound": "COc1ccc(OC)c(/C=N/NC(=O)CNC(=O)c2cccc3ccccc23)c1", "label": "inactive"}
{"compound": "C[C@H]1c2cccc(O)c2C(O)=C2C(=O)[C@]3(O)C(O)=C(C(N)=O)C(=O)[C@@H](N(C)C)[C@@H]3[C@@H](O)[C@@H]21", "label": "inactive"}
{"compound": "COC(=O)CC1COc2ccccc2N1C(=O)c1ccc(Cl)cc1 (stereo not given)", "label": "inactive"}

Lab note: next compound to report on.
Record lookup: outcome of this test for CN(C)n1cnc2ccsc2c1=O ?
inactive

* * *

method_description: inhibitors of HIV fusion peptide binding, primary screen, biochemical, uHTS, fluorescence dequenching (AID 1986)
conditions_used: cell-free peptide binding, 30 min, at 20 µM
Screen size: about 290,000 compounds; about 890 (0.31%) were called active. Cut-off read from the data, not from the text of the source: active = inhibition mostly above about 52% (no sharp cut-off); inactive = mostly below about 76%. Shown is part of a subset that was picked to be rich in actives.
Valid outcomes are listed here; reply with one: active, inactive

Previously resolved entries follow.
{"compound": "COCCN1C(=O)/C(=C/c2ccc(N3CCCC3)cc2C)SC1=S", "label": "inactive"}
{"compound": "O=C1/C(=C/c2ccc(N3CCCC3)cc2)NC(=S)N1C1CC1", "label": "active"}
{"compound": "C#CCn1c(-c2cccs2)nc2ccccc21", "label": "inactive"}

What is the recorded call for this compound in the test? Cc1nc2c(C(=O)NCCc3ccccc3)c[nH]n2c(=O)c1Cl
inactive

Called result for Cn1c(=O)c2[nH]c(Nc3ccccc3)nc2n(C)c1=O
inactive

Lab log entry: CCN(CC)C(=O)Cn1cc(S(=O)(=O)CC(=O)Nc2ccccc2C)c2ccccc21 — outcome as called in the assay?
inactive

What did the test return for Cc1ccc(C)c(S(=O)(=O)NCCCn2ccnc2)c1 ?
inactive

Status in this test for Cc1cc(/C=C2\NC(=S)N(C)C2=O)ccc1N1CCCC1 ?
inactive

The measurements presented in this section are drawn from PubChem BioAssay AID1986.
